Tested on: Staphylococcus aureus
run-description: Antimicrobial activity against Staphylococcus aureus ATCC 13709 after 20 to 24 hrs
Format: functional
quantity-name: MIC (mg/L)

A: CCCCCCCCN(CCCCCCCC)CCO[C@H]1[C@H](O[C@H]2C(O[C@H]3O[C@H](CO)[C@@H](O)[C@H](O)[C@H]3N)[C@@H](N)C[C@@H](N)[C@@H]2O)O[C@H](CO)[C@H]1O[C@H]1O[C@@H](CN)[C@@H](O)[C@H](O)[C@H]1N (some centres not stated)
B: NC[C@@H]1O[C@H](O[C@H]2[C@@H](OCCNC3CCCCC3)[C@H](O[C@@H]3[C@@H](O)[C@H](N)C[C@H](N)[C@H]3O[C@H]3O[C@H](CO)[C@@H](O)[C@H](O)[C@H]3N)O[C@@H]2CO)[C@H](N)[C@@H](O)[C@@H]1O
Query string: Please state the entry with greater MIC among A and B . Write down the label attached to your selection.
Result string: B
(B: 3 mg/L, A: 1.2 mg/L)
